- Procedure text: Rat PK test (cassette dosing)
- Type: in vivo
- Run parameters: male SD rats, plasma, intravenous 0.1 mg/kg, 10 compounds cassette, read-out: CL total (total clearance) (converted)
- Method: As the rat, 8-week-old male SD rats (Japan SLC, Inc.) were used. They were fed on a solid commercially available diet (CE-2, CLEA Japan, Inc.) and allowed to freely ingest tap water as the drinking water. […] All drug concentrations were measured by LC-MS/MS analysis. […]
Assay endpoint: clearance (mL/min/kg)
Numeric only. Scale: mL/min/kg

>  <Smiles notation>
Cc1c(Cc2ccc(C(=O)NC[C@H]3CCCO3)c(F)c2)cc(C(=O)N[C@H]2CCOC[C@@H]2O)c2c1CCO2

>  <Measurement units>
mL/min/kg

>  <clearance>
27.5

$$$$
>  <Smiles notation>
Cc1c(Cc2ccc(-c3cn(C)nn3)cc2)cc(C(=O)N[C@H]2CCOC[C@@H]2O)c2c1CCO2

>  <Measurement units>
mL/min/kg

>  <clearance>
3.08

$$$$
>  <Smiles notation>
Cc1c(Cc2ccc(C(=O)NCC(=O)N(C)C)c(F)c2)cc(C(=O)N[C@H]2CCOC[C@@H]2O)c2c1CCO2

>  <Measurement units>
mL/min/kg

>  <clearance>
18.9

$$$$

Consider now this further compound.
Q) Field request: clearance | item: COCCNC(=O)c1ccc(Cc2cc(C(=O)N[C@H]3CCOC[C@@H]3O)c3c(c2C)CCO3)cc1F
A) 19.6

Ref: patent US11970483B2
